SYSTEM: Kelch-like ECH-associated protein 1 (Homo sapiens) (UniProt Q14145)
Sequence (Q14145 whole entry, looked up): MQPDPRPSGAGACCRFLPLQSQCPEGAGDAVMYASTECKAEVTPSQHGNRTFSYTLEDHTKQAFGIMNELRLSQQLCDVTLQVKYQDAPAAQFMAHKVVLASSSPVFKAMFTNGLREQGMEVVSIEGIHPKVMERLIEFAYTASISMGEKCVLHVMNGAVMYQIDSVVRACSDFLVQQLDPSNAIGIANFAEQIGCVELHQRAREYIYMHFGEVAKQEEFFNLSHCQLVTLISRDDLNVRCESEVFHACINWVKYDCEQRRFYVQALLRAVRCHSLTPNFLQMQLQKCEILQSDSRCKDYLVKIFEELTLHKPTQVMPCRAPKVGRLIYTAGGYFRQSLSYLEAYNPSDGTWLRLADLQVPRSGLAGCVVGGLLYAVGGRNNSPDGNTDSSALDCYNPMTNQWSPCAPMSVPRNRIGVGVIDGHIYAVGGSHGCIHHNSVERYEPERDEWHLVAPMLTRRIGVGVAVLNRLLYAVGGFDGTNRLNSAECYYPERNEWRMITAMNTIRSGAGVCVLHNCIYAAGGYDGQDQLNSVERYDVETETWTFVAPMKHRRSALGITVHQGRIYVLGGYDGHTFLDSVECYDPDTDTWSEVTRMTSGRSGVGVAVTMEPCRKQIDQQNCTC
ASSAY NOTES: competitive SPR blockade of Keap1/Nrf2 binding – biophysical, dry powder, orthogonal assay for Keap1-Nrf2 interaction inhibitor project, confirmation (AID 651876)
EXPERIMENTAL CONDITIONS: Keap1 Kelch binding to Nrf2 peptide, inhibition, at 5 µM, stronger effect = higher value
ENDPOINT NAME: inhibition (%)

COMPOUND	ENDPOINT NAME	MEASURED VALUE
CC(=O)Nc1cc(NS(=O)(=O)c2c(C)cc(C)cc2C)c2ccccc2c1O	inhibition	9.6
Cc1cc(C)c(S(=O)(=O)Nc2nc(NCCO)nc3ccccc23)c(C)c1	inhibition	3.6
CCOC(=O)C(C(=O)OCC)c1cc(CNS(=O)(=O)c2ccc(C)cc2C)c2ccccc2n1	inhibition	3.9
CCOC(=O)C(C(=O)OCC)c1cc(CN2C(=O)c3ccccc3C2=O)c2ccccc2n1	inhibition	11.9
Cc1ccc(S(=O)(=O)NNc2nc(C(C(=O)OC(C)C)C(=O)C(F)(F)F)nc3ccccc23)cc1 (stereo not drawn)	inhibition	4.9
Cc1ccc(S(=O)(=O)Nc2cc(C(C(=O)OC(C)C)C(=O)C(F)(F)F)c(O)c3ccccc23)cc1 (stereo not drawn)	inhibition	30.2
Cc1ccc(S(=O)(=O)NC[C@@H]2c3ccccc3CCN2C(=O)[C@@H]2CCCC[C@@H]2C(=O)O)c(C)c1	inhibition	0.1
O=C(O)C1CCCCC1C(=O)N1CCc2ccccc2C1CN1C(=O)[C@H]2CCCC[C@H]2C1=O (stereo partly drawn)	inhibition	19.1
O=C(O)C1CCCCC1C(=O)N1CCc2ccccc2[C@H]1C(=O)NCCc1ccccc1 (stereo partly drawn)	inhibition	-5.5
O=C1c2ccccc2C(=O)N1CC1c2ccccc2CCN1C(=O)Cc1ccccc1 (stereo not drawn)	inhibition	3.1

P: Cc1ccc(S(=O)(=O)NC2=CC(=N[C@@H](C)C(=O)OC(C)(C)C)C(=O)c3ccccc32)c(C)c1
Q: O=C(O)c1ccccc1C(=O)NC[C@@H]1c2ccccc2CCN1C(=O)[C@@H]1CCCC[C@@H]1C(=O)O
R: Cc1ccc(S(=O)(=O)Nc2cc(C(C(=O)OC(C)C)C(=O)C(F)(F)F)c(O)c3ccccc23)c(C)c1 (stereo not drawn)
Task: Put the items in sequence by inhibition, from largest down. Quick reminder: the answer is the labels in the order asked.
Result: R, Q, P
(R: 57.8%, Q: 0.9%, P: -5.37%)
